test_description: chemical genetic growth profiling, strain panel (AID 1159580);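 also: tested at 20 µM; growth read once vehicle control cultures reached saturation at 30 °C; 1 = growth at the plate median or of vehicle wells; lower values mean less growth of the strain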
study_conditions: S. cerevisiae deletion strains, growth OD, locus YOR083W, strain WHI5 (second series), active compounds read low
About 2,000 (36%) of roughly 5,500 compounds were called active. Roughly 18% stayed inconclusive and do not appear here. Some of the results follow.
attribute_measured: normalized growth
Write the value as a bare number.

These solved cases illustrate the format of a correct answer.
| molecule | normalized growth |
| --- | --- |
| CCC1(C2=NCCN2)Cc2ccccc2O1 (stereo unspecified) | 1 |
| NC(=O)CN1CC(O)CC1=O (stereo unspecified) | 1 |
| N[C@@H](Cc1cnc[nH]1)C(=O)O | 1.03 |
| Oc1cc2c(cc1O)[C@H]1c3ccccc3CN[C@@H]1CC2 | 1.01 |

Inquiry: I am curious: what normalized growth value has been reported for c1ccc2nc(C3=NCCN3)ccc2c1 ?
Reply text: 1

Inquiry: Please do the same for OC[C@H]1O[C@@H](n2cnc3c(NC4CCCCC4)ncnc32)[C@H](O)[C@@H]1O as well.
Reply text: 0.984

Inquiry: Please do the same for Nc1ccc2c3c(cccc13)C(=O)NC2=O as well.
Reply text: 0.965

Inquiry: Please do the same for Cc1cc(O)c2c(c1)C(=O)c1cc(O)cc(O)c1C2=O as well.
Reply text: 0.422

Inquiry: Please do the same for NC1CCc2cc(O)c(O)cc2C1 (stereo unspecified) as well.
Reply text: 1.08

Inquiry: Please do the same for Nc1nc(SCc2ccc([N+](=O)[O-])cc2)c2ncn([C@@H]3O[C@H](CO)[C@H](O)C3O)c2n1 (stereo partly specified) as well.
Reply text: 0.998

Inquiry: Please do the same for O=C(O)CC[N+](=O)[O-] as well.
Reply text: 0.995

###

test_description: chemical genetic growth profiling, strain panel (AID 1159580);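 also: tested at 20 µM; growth read once vehicle control cultures reached saturation at 30 °C; 1 = growth at the plate median or of vehicle wells; lower values mean less growth of the strain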
study_conditions: S. cerevisiae deletion strains, growth OD, locus YLR370C, strain arc18, active compounds read low
About 2,000 (36%) of roughly 5,500 compounds were called active. About 18% were inconclusive and are not listed. This is one part of the list.
normalized growth for assorted molecules

These solved cases illustrate the format of a correct answer.
| molecule | normalized growth |
| --- | --- |
| O=C(O)CC[N+](=O)[O-] | 1 (inactive) |
| NC(=NCCCCCCN=C(N)N=C(N)Nc1ccc(Cl)cc1)N=C(N)Nc1ccc(Cl)cc1 | 0.0607 (active) |
| CC1(C)CC23C(=O)CCC(O)C2(C)CCC13 (centres undefined) | 0.981 (inactive) |

Inquiry: I am curious: what normalized growth value has been reported for O=C(/C=C/c1ccc(O)cc1)c1ccc(O)cc1O ?
Reply text: 1.02 (inactive)

Inquiry: Please do the same for O=C1NS(=O)(=O)c2ccccc21 as well.
Reply text: 1.02 (inactive)

Inquiry: Please do the same for CC(=O)Nc1c(I)cc(I)c(C(=O)O)c1I as well.
Reply text: 0.989 (inactive)

Inquiry: Please do the same for O=C1C=CC(=O)c2c(O)c(Cl)c(Cl)c(O)c21 as well.
Reply text: 0.0692 (active)

Inquiry: Please do the same for CC(C)N1C(=O)c2ccccc2NS1(=O)=O as well.
Reply text: 0.973 (inactive)

Inquiry: Please do the same for Cc1cc(O)c2c(c1)C(=O)c1cccc(O)c1C2=O as well.
Reply text: 1.02 (inactive)
